# EXPERIMENT_DESCRIPTION: Rat pharmacokinetics, i.v. bolus
# Format: in vivo, Sprague-Dawley rats
# TEST_PARAMETERS: rat, in vivo, iv, 15 mg/kg, female Sprague-Dawley rats, single 15 mg/kg slow i.v. bolus, plasma, LC-MS/MS, noncompartmental, n = 3 to 5/dose; read-out: CL (clearance)
Starred links: 1 amine or outer side, 2 acyl side, 3 side chain; linkers in the order of their positions; H or OH if unused. Positions of bridges follow the written chain, without caps; N, C: chain ends. Non-standard residues stand in square brackets, D forms with d. Residues, ends and D or L forms follow the SMILES beside them. *: point of attachment. Orn(4R-OH,5R-OCH2CH2NMe3+) = C[N+](C)(C)CCO[C@@H](N[*:3])[C@H](O)C[C@H](N[*:1])C(=O)[*:2]; pTerphenylCO(4''-OnC5H11) = CCCCCOc1ccc(-c2ccc(-c3ccc(C(=O)*)cc3)cc2)cc1; hTyr(3S-OH,4S-OH) = N[C@H](C(=O)O)[C@H](O)[C@@H](O)c1ccc(O)cc1; Pro(3S-OH,4S-Me) = C[C@H]1CN[C@H](C(=O)O)[C@H]1O; Hyp = O=C(O)[C@@H]1C[C@@H](O)CN1
MEASUREMENT_KIND: clearance (mL/min/kg)
Supply the numeric figure in mL/min/kg, leaving out any unit text.

Task: Which clearance is reported for this molecule? CCCCCOc1ccc(-c2ccc(-c3ccc(C(=O)N[C@H]4C[C@@H](O)[C@@H](OCC[N+](C)(C)C)NC(=O)[C@@H]5[C@@H](O)[C@@H](C)CN5C(=O)[C@H]([C@@H](C)O)NC(=O)[C@H]([C@H](O)[C@@H](O)c5ccc(O)cc5)NC(=O)[C@@H]5C[C@@H](O)CN5C(=O)[C@H]([C@@H](C)O)NC4=O)cc3)cc2)cc1 [CD101] ({pTerphenylCO(4''-OnC5H11)}-[Orn(4R-OH,5R-OCH2CH2NMe3+)]T[Hyp][hTyr(3S-OH,4S-OH)]T[Pro(3S-OH,4S-Me)]; lactam 1-C)
Output: 0.567

====

# EXPERIMENT_DESCRIPTION: Mouse pharmacokinetics, i.p. injection
# TEST_PARAMETERS: in vivo, ip, female ICR (CD-1) mice, single 1 mg/kg i.p., plasma, LC-MS/MS, noncompartmental from mean profile, n = 3/time point
# Protocol: A single 1-mg/kg dose of CD101 or anidulafungin was administered by slow i.v. bolus (∼2 min) to male ICR (CD-1) mice (n = 3/group/time point). […] For each of the pharmacokinetic studies, whole-blood samples (K3EDTA as anticoagulant) were collected and centrifuged within 30 min of collection. […] When necessary, dilutions with blank matrix were made for samples that quantified above the upper limit of quantitation. […]
Starred links: 1 amine or outer side, 2 acyl side, 3 side chain; linkers in the order of their positions; H or OH if unused. Positions of bridges follow the written chain, without caps; N, C: chain ends. Non-standard residues stand in square brackets, D forms with d. Residues, ends and D or L forms follow the SMILES beside them. *: point of attachment. Orn(4R-OH,5R-OCH2CH2NMe3+) = C[N+](C)(C)CCO[C@@H](N[*:3])[C@H](O)C[C@H](N[*:1])C(=O)[*:2]; pTerphenylCO(4''-OnC5H11) = CCCCCOc1ccc(-c2ccc(-c3ccc(C(=O)*)cc3)cc2)cc1; hTyr(3S-OH,4S-OH) = N[C@H](C(=O)O)[C@H](O)[C@@H](O)c1ccc(O)cc1; Pro(3S-OH,4S-Me) = C[C@H]1CN[C@H](C(=O)O)[C@H]1O; Hyp = O=C(O)[C@@H]1C[C@@H](O)CN1
MEASUREMENT_KIND: AUC(0-inf) (ng·h/mL)
Report the value in ng·h/mL with no unit label.

Task: I'd like to know its AUC(0-inf). The compound in question is CCCCCOc1ccc(-c2ccc(-c3ccc(C(=O)N[C@H]4C[C@@H](O)[C@@H](OCC[N+](C)(C)C)NC(=O)[C@@H]5[C@@H](O)[C@@H](C)CN5C(=O)[C@H]([C@@H](C)O)NC(=O)[C@H]([C@H](O)[C@@H](O)c5ccc(O)cc5)NC(=O)[C@@H]5C[C@@H](O)CN5C(=O)[C@H]([C@@H](C)O)NC4=O)cc3)cc2)cc1 [CD101] ({pTerphenylCO(4''-OnC5H11)}-[Orn(4R-OH,5R-OCH2CH2NMe3+)]T[Hyp][hTyr(3S-OH,4S-OH)]T[Pro(3S-OH,4S-Me)]; lactam 1-C)
Output: 88900
